Measured Activation EC50 ng/mL (IFNg secretion), listed per entry.
Target: T1, human GITR (human, UniProt Q9Y5U5 26-241)
T1 sequence: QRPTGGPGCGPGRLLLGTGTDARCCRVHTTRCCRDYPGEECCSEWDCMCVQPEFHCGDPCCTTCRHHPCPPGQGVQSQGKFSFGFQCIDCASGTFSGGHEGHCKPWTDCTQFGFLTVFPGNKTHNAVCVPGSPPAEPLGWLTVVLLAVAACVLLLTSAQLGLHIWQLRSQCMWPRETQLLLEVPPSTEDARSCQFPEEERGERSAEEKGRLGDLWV
Experiment: cell-based or functional assay
Field format: number, assumed ng/mL, no unit text.

// below: answered binders
>  <Binder>
33C9v2 (antibody, human IgG1, kappa, V domains shown, Engineered variant; also called Ab51; SS-13808) VH: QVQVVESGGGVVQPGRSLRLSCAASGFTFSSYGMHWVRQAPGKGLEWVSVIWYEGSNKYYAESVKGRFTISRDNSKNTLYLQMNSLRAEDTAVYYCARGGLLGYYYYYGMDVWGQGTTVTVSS VL: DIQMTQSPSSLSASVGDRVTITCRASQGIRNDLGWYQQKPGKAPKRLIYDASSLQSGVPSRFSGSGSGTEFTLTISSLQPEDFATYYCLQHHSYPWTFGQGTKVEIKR

>  <Observed>
0.86

$$$$
>  <Binder>
7A10v1 (antibody, human IgG1, kappa, V domains shown, Engineered variant; also called Ab39; SS-13810) VH: QVQLVESGGGVVQPGRSLRLSCAASGFTFSSYGMHWVRQAPGKGLEWMAVIWYVGSNKYYADSVKGRFTISRDNSKNTLYLQMNSLRAEDTAVYYCARGGELGRDYYSGMDVWGQGTTVTVSS VL: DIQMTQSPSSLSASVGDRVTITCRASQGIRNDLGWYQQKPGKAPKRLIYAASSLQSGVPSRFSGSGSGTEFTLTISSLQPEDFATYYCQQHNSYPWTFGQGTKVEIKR

>  <Observed>
0.32

$$$$
>  <Binder>
5H7v2 (antibody, human IgG1, kappa, V domains shown, Engineered variant; also called Ab26; SS-13807) VH: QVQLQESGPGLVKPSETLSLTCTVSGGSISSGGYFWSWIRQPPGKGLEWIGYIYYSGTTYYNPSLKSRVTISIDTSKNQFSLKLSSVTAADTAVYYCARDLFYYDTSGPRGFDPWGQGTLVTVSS VL: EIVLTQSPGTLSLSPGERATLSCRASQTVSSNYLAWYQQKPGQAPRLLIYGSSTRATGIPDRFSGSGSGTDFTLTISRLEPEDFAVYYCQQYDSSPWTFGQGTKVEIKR

>  <Observed>
1.6

$$$$

Let's switch to this binder now.
input: # input binder: 41G5v2 (antibody, human IgG1, kappa, V domains shown, Engineered variant; also called Ab56; SS-13809) VH: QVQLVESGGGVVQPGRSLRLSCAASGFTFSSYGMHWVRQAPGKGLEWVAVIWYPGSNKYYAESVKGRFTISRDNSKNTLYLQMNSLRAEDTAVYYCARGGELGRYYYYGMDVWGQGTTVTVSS VL: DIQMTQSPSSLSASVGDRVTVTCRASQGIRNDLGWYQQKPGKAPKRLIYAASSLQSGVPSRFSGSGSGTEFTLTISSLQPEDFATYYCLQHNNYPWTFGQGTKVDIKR ; wanted: its Activation EC50 ng/mL (IFNg secretion)
output: 0.64

Every entry's value here was drawn from patent US20150064204A1.
